Assay: growth inhibition, single agent and combos, cell-based, chromothripsis tumors, cisplatin or BGB combos (AID 1671450);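 also: cells exposed to compound for four days; 0% = vehicle DMSO and 100% = cell killing by high DMSO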
Settings: HDN33 neuroblastoma cells, single agent, at 5 µM, stronger effect = higher value
measurement-type: inhibition (%)
The reply should contain only the number, in %.

Task: For the molecule CCC1(O)C(=O)OCc2c1cc1n(c2=O)Cc2cc3cc(O)ccc3nc2-1 (centres undefined) , report inhibition.
Output: 96

Task: Give reported inhibition value for NC(=O)c1ncn(C2OC(CO)C(O)C2O)c1O (centres undefined)
Output: -11

Task: Report inhibition for Nc1ncn(C2OC(CO)C(O)C2O)c(=O)n1 (centres undefined)
Output: 47.8

Task: Quickly give me recorded inhibition for CC=C1NC(=O)C2CSSCCC=CC(CC(=O)NC(C(C)C)C(=O)N2)OC(=O)C(C(C)C)NC1=O (centres undefined)
Output: 99.9

Task: Tell me its inhibition given "COc1nc(N)nc2c1ncn2[C@@H]1O[C@H](CO)[C@@H](O)[C@H]1O" as the entry.
Output: -2.81

Task: Given the molecule "Cc1cc(C=CC#N)cc(C)c1Nc1ccnc(Nc2ccc(C#N)cc2)n1" , write its reported inhibition.
Output: -11.3

Task: Item CC1CN(c2c(F)c(N)c3c(=O)c(C(=O)O)cn(C4CC4)c3c2F)CC(C)N1 (centres undefined) : provide inhibition
Output: 6.32

Task: Answer with the recorded inhibition of "Cc1ccc(NC(=O)CCCCCC(=O)Nc2ccccc2N)cc1" only.
Output: 25.4

Task: Recall and state the measured inhibition for "CC(C)c1ccc(-c2cc(=O)c3ccccc3o2)cc1" .
Output: 42.1

Task: Look up inhibition of "CN(C)C(=S)NN=C(c1ccccn1)c1ccccn1" and report it.
Output: 95.4

Task: Report measured inhibition; entry is "Cn1cnc2[nH]c(=O)[nH]c(=O)c21"
Output: -7.59

Task: Name the recorded inhibition of the item CC1OC(CC(=O)O)CC2=C1C(=O)c1c(O)cccc1C2=O (centres undefined) in your answer.
Output: 99.9

Task: Fill in inhibition for record "Cn1cc(-c2cnn3c(N)c(Br)c([C@H]4CCCNC4)nc23)cn1"
Output: 88.5

Task: Give recorded inhibition. "C[n+]1ccc(-c2c3nc(c(-c4cc[n+](C)cc4)c4ccc([nH]4)c(-c4cc[n+](C)cc4)c4nc(c(-c5cc[n+](C)cc5)c5ccc2[nH]5)C=C4)C=C3)cc1"
Output: -48.2

Task: Retrieve inhibition measured for "C[C@@H]1COCCN1c1cc(C2(S(C)(=O)=O)CC2)nc(-c2cccc3[nH]ccc23)n1" and print it.
Output: 94

Task: Could you please provide reported inhibition for CC1CNC(=O)NC1=O (centres undefined) ? Thanks!
Output: 2.08

Task: Supply measured inhibition of "Cc1ccc([N+](=O)[O-])cc1S(=O)(=O)N(C)/N=C\c1cnc2ccc(Br)cn12" in your reply.
Output: 99.5

Task: Report inhibition, nothing else, for this molecule: "O=c1cc(-c2ccc(O)cc2)[nH]c(=S)[nH]1"
Output: -27.7

Task: Name the recorded inhibition of the molecule listed here: C=C(NC(=O)C(=C)NC(=O)c1csc(C2=NC3c4csc(n4)C4NC(=O)c5csc(n5)C(C(C)(O)C(C)O)NC(=O)C5CSC(=N5)/C(=C/C)NC(=O)C(C(C)O)NC(=O)c5csc(n5)C3(CC2)NC(=O)C(C)NC(=O)C(=C)NC(=O)C(C)NC(=O)C(C(C)CC)NC2C=Cc3c(C(C)O)cc(nc3C2O)C(=O)OC4C)n1)C(N)=O (centres undefined)
Output: 99.8
